- measured_on: BTK enzyme (Homo sapiens, UniProt Q06187)
- Sequence (Q06187 whole entry): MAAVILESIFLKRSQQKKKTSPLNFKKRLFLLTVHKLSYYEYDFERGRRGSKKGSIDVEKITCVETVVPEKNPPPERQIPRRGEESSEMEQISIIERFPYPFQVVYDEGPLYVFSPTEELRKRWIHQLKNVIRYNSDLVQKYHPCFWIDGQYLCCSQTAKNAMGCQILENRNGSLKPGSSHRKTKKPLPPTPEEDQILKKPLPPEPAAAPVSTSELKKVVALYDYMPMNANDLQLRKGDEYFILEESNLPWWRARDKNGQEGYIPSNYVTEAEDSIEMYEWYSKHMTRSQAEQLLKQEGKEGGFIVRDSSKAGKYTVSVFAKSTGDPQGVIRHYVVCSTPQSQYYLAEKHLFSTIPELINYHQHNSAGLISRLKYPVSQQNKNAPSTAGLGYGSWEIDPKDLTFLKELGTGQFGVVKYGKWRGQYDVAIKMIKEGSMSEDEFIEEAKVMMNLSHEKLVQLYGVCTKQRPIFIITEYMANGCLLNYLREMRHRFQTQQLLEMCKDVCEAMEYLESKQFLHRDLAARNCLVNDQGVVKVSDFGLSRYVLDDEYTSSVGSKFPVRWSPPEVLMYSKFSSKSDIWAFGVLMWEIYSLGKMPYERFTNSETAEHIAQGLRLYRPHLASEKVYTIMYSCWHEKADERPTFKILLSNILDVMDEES
Reported IC50 values follow for various molecules

The cases that follow already have their IC50 on record.
[
  {
    "molecule": "CC(C)(C)C1CCN(C(=O)NC2CCCCc3cc(-c4ccnc(Nc5cnn(CCO)c5)n4)ccc32)C1 (stereo not shown)",
    "measured_result": "< 10 nM"
  },
  {
    "molecule": "Cc1cc(-c2ccnc(Nc3cnn(C)c3)n2)ccc1CNC(=O)c1cc(C(C)(C)C)on1",
    "measured_result": "< 10 nM"
  },
  {
    "molecule": "CC(C)(C)OC1CN(C(=O)N[C@@H]2CCCCc3cc(-c4ccnc(Nc5cnn(CCO)c5)n4)ccc32)C1",
    "measured_result": "< 10 nM"
  },
  {
    "molecule": "Cc1cc(-c2ccnc(Nc3cn(C)nc3C)n2)ccc1CNC(=O)c1cnc(C(C)(C)C)s1",
    "measured_result": "< 10 nM"
  },
  {
    "molecule": "CC(C)OC1CN(C(=O)NC2CCCCc3cc(-c4ccnc(Nc5cnn([C@@H]6CCOC6)c5)n4)ccc32)C1 (stereo partly shown)",
    "measured_result": "< 10 nM"
  },
  {
    "molecule": "Cc1cc(-c2ccnc(Nc3ccccn3)n2)ccc1CNC(=O)c1cnc(C(C)(C)C)s1",
    "measured_result": "10 to 99 nM"
  },
  {
    "molecule": "Cc1cc(-c2ccnc(Nc3cnn(C4CCN(C)CC4)c3)n2)ccc1CNC(=O)c1cnn(C(C)(C)C)c1",
    "measured_result": "< 10 nM"
  },
  {
    "molecule": "Cc1cc(-c2ccnc(Nc3cnn(C4CN(C)C4)c3)n2)ccc1CNC(=O)N1CC(OC(C)(C)C)C1",
    "measured_result": "< 10 nM"
  },
  {
    "molecule": "Cc1cc(-c2ccnc(Nc3cnn(C4CC(C(=O)O)C4)c3)n2)ccc1CNC(=O)c1cnc(C(C)(C)C)s1 (stereo not shown)",
    "measured_result": "< 10 nM"
  },
  {
    "molecule": "Cc1cc(-c2ccnc(N)n2)ccc1CNC(=O)c1cnc(C(F)(F)F)s1",
    "measured_result": "100 to 999 nM"
  }
]

Quick check: IC50 on BTK enzyme (Homo sapiens, UniProt Q06187), item Cc1c(Nc2nccc(-c3ccc(CNC(=O)N4CCC(C(C)(C)C)C4)c(CCO)c3)n2)cnn1C (stereo not shown) ? < 10 nM

Missing value: IC50, BTK enzyme (Homo sapiens, UniProt Q06187), entry `Cc1cc(-c2ccnc(Nc3cnn([C@H]4CC[C@H](C(=O)O)CC4)c3)n2)ccc1CNC(=O)c1cnc(C(C)(C)C)s1` . Fill in? < 10 nM

Form entry - test system: BTK enzyme (Homo sapiens, UniProt Q06187); read-out: IC50; molecule: `Cc1cc(-c2ccnc(NC3CCS(=O)(=O)CC3)n2)ccc1CNC(=O)c1cnc(C(C)(C)C)s1` 1000 to 10000 nM

Form field - read-out: IC50; system: BTK enzyme (Homo sapiens, UniProt Q06187); submitted item: Cn1cc(Nc2nccc(-c3ccc4c(c3)CCCC4NC(=O)N3CC(OC(C)(C)C)C3)n2)cn1 (stereo not shown) < 10 nM

Checklist item: IC50 tested on BTK enzyme (Homo sapiens, UniProt Q06187), entry `Cc1cc(-c2cc(Nc3ccn(C4CCN(C)CC4)n3)ncn2)ccc1CNC(=O)c1cnc(C(C)(C)C)s1` , value? < 10 nM

# value lookup — system BTK enzyme (Homo sapiens, UniProt Q06187), readout IC50, item `Cc1cc(-c2ccnc(Nc3cnn(C)c3)n2)ccc1CNC(=O)[C@H]1CC[C@@H](C(F)(F)F)CC1` 100 to 999 nM

Find IC50 (BTK enzyme (Homo sapiens, UniProt Q06187)) for the entry `Cc1cc(-c2ccnc(Nc3cnn(C[C@H](N)C(=O)O)c3)n2)ccc1CNC(=O)c1cnc(C(C)(C)C)s1` < 10 nM

Item: `Cc1cc(-c2cc(Nc3cc4n(n3)CCN(C)C4)ncn2)ccc1CN1CCc2c(cnn2C(C)(C)C)C1=O` Test system: BTK enzyme (Homo sapiens, UniProt Q06187) Read-out: IC50 Value: ? < 10 nM

What value of IC50 on BTK enzyme (Homo sapiens, UniProt Q06187) does `Cn1cc(Nc2nccc(-c3ccc(CNC(=O)c4cnc(C(C)(C)C)s4)c(C(F)(F)F)c3)n2)cn1` have? < 10 nM

Form: Entry = `Cc1cc(-c2ccnc(Nc3cnn(C)c3)n2)ccc1CNC(=O)N1CC(OCCF)C1` | System = BTK enzyme (Homo sapiens, UniProt Q06187) | IC50 = ____ < 10 nM

Give BTK enzyme (Homo sapiens, UniProt Q06187) IC50 for CC(C)(C)C1CCN(C(=O)NC2CCCCc3cc(-c4ccnc(Nc5cnn(C6CCOCC6)c5)n4)ccc32)C1 (stereo not shown) < 10 nM

Hello, I am looking for reported IC50 with BTK enzyme (Homo sapiens, UniProt Q06187) for CN1CC(n2cc(Nc3nccc(-c4ccc(CNC(=O)N5CCC(C(C)(C)C)C5)c(C(F)(F)F)c4)n3)cn2)C1 (stereo not shown) . Could you help? < 10 nM
